Cited source: patent US8927500B2

- TESTED SYSTEM: MDMX (Homo sapiens)
- Sequence (O15151 1-125): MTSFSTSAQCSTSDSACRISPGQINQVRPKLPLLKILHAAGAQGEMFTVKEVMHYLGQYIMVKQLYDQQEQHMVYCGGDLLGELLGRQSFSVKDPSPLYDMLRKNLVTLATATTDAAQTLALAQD
- PROCEDURE TEXT: Competitive fluorescence polarization assay for MDMX
- Assay type: binding
- ASSAY SETUP: competitive FP assay, read-out: IC50 (MDMX)
Where a SMILES comes first, the peptide text is derived from it. Bridges are numbered along the chain shown (N, C = ends). [ ]: non-standard residue; d: D form. R8 = C=CCCCCCC[C@@](C)(N)C(=O)O; S5 = C=CCCC[C@](C)(N)C(=O)O
ENDPOINT NAME: IC50

Tell me the measured IC50 of CC[C@H](C)[C@H](NC(=O)[C@H](C)NC(=O)[C@H](CO)NC(=O)[C@]1(C)CCCC=CCCCCCC[C@@](C)(NC(=O)[C@H](Cc2ccccc2)NC(=O)[C@@H](NC(=O)[C@H](CC(C)C)NC(C)=O)[C@@H](C)O)C(=O)N[C@@H](C)C(=O)N[C@@H](Cc2ccc(O)cc2)C(=O)N[C@@H](Cc2c[nH]c3ccccc23)C(=O)N[C@@H](C)C(=O)N[C@@H](CCC(N)=O)C(=O)N[C@@H](CC(C)C)C(=O)N1)C(N)=O [compound 8] (Ac-LTF[R8]AYWAQL[S5]SAI-NH2; staple 4-11) , please.
100 to 1000 nM

Tell me the measured IC50 of CC(C)C[C@H](NC(=O)CN(C)C)C(=O)N[C@H](C(=O)N[C@@H](Cc1ccccc1)C(=O)N[C@]1(C)CCCCCCC=CCCC[C@@](C)(C(=O)N[C@@H](CO)C(=O)N[C@@H](C)C(=O)N[C@@H](C)C(N)=O)NC(=O)[C@H](CC2CCC2)NC(=O)[C@H](CCC(N)=O)NC(=O)[C@H](C)NC(=O)[C@H](Cc2c[nH]c3ccccc23)NC(=O)[C@H](Cc2ccc(O)cc2)NC(=O)[C@H](CCC(=O)O)NC1=O)[C@@H](C)O , please.
10 to 100 nM
